- protocol_details: chemical genetic growth profiling, strain panel (AID 1159580);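 note: tested at 20 µM; growth read once vehicle control cultures reached saturation at 30 °C; lower values mean less growth of the strain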
- experimental_conditions: S. cerevisiae deletion strains, growth OD, locus YLR039C, strain RIC1, active compounds read low
The whole screen tested about 5,500 compounds, of which about 2,000 (36%) were called active. Not shown: some 18% with an inconclusive outcome. This is one part of the list.
Consider the cut-off 1. If the recorded normalized growth is strictly smaller, the label is t; if not, the label is f.

Answered cases to consult:
normalized growth under 1? Item: CC(C)=CCCC(C)[C@@H]1CC[C@]2(C)C3=C(CC[C@@]12C)C1(C)CC[C@H](O)C(C)(C)C1CC3 (stereo partly drawn) f

normalized growth under 1? Item: `C=C1c2c(Cl)ccc(O)c2C(O)=C2C(=O)[C@]3(O)C(O)=C(C(N)=O)C(=O)[C@@H](N(C)C)[C@@H]3[C@@H](O)[C@H]12` t

normalized growth under 1? Item: CC(C)CC(NC(=O)OCC1c2ccccc2-c2ccccc21)C(=O)O (stereo not drawn) f

Others:
normalized growth under 1? Item: CC(C)=CCCC(C)C1CC[C@@]2(C)C3=C(CC[C@]12C)C1(C)CC[C@H](O)C(C)(C)C1CC3 (stereo partly drawn) t

normalized growth under 1? Item: CC(=O)O[C@H]1CCC2(C)C3=C(CCC2C1(C)C)[C@@]1(C)CC[C@@H](C(C)CCC=C(C)C)[C@]1(C)CC3 (stereo partly drawn) f

normalized growth under 1? Item: `C=C1c2cccc(O)c2C(O)=C2C(=O)[C@]3(O)C(O)=C(C(N)=O)C(=O)[C@@H](N(C)C)[C@@H]3[C@@H](O)[C@H]12` t
